Please go through the items and note down their pIC50.
- Target Of Assay: interaction between PD-1 and PD-L1 (Homo sapiens (Human))
- Sequence (Q9NZQ7 19-238): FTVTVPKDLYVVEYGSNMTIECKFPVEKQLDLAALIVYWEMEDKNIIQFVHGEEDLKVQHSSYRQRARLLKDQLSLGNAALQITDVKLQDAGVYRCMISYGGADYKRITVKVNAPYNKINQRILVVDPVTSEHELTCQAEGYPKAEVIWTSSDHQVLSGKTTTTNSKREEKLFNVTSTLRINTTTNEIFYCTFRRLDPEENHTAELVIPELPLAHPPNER
- Assay Procedure: PD1-PDL1 HTRF binding activity test
- Test Conditions: Cisbio PD-1/PD-L1 binding assay kit
Answers are plain numbers, as −log10 of the molar value.

Query string: Annotate the compound `CC(C)N1CCc2cc(C(=O)Nc3cccc(-c4cccc(NC(=O)c5nc6c(n5C)CCN(CCC57CCC(C(=O)O)(CC5)CC7)C6)c4Cl)c3Cl)ncc2C1` with its measured pIC50.
Result string: 9.14

Query string: Give the reported value of pIC50 for this record: `CN1CCc2cc(C(=O)Nc3cccc(-c4cccc(NC(=O)c5nc6c(n5C)CCN(CCC57CCC(C(=O)O)(CC5)C7)C6)c4Cl)c3Cl)ncc2C1`
Result string: 9.75

Query string: Give the value of pIC50 reported for the following: CC(C)N1CCc2cc(C(=O)Nc3cccc(-c4cccc(NC(=O)c5nc6c(n5C)CCN(CCC57C8C9C5C5C7C8C95C(=O)O)C6)c4Cl)c3Cl)ncc2C1 (centres unmarked)
Result string: 9.04

Query string: Quickly give me recorded pIC50 for `CC(C)N1CCc2cc(C(=O)Nc3cccc(-c4cccc(NC(=O)c5nc6c(n5C)CCN(CCC57CCC(C(=O)O)(CC5)C7)C6)c4Cl)c3Cl)ncc2C1`
Result string: 9.14

Query string: Supply measured pIC50 of `CCN1CCc2cc(C(=O)Nc3cccc(-c4cccc(NC(=O)c5nc6c(n5C)CCN(CCC57CCC(C(=O)O)(CC5)C7)C6)c4Cl)c3Cl)ncc2C1` in your reply.
Result string: 9.76

Query string: Determine its reported pIC50: `CC(C)N1CCc2cc(/C(F)=C/c3cccc(-c4cccc(NC(=O)c5nc6c(n5C)CCN(CCC57CCC(C(=O)O)(CC5)C7)C6)c4Cl)c3Cl)ncc2C1`
Result string: 9.45

Query string: Tell me its pIC50 given `CC(C)N1CCc2cc(C(=O)Nc3cccc(-c4cccc(NC(=O)c5nc6c(n5C)CCN(CCC57CC(C(=O)O)(C5)C7)C6)c4Cl)c3Cl)ncc2C1` as the entry.
Result string: 9.60

Others:
Query string: Hello, please tell me recorded pIC50 for this one: `Cn1c(C(=O)Nc2cccc(-c3cccc(NC(=O)c4cc5c(cn4)CN(C4COC4)CC5)c3Cl)c2Cl)nc2c1CCN(CCC13CCC(C(=O)O)(CC1)C3)C2`
Result string: 9.96

Values from patent US12552811B2
